System: CAKI-1
Experiment: NCI tumour cell line growth inhibition, 48 h
Activity calls are given as the source filed them. No stated cut-off is given here; in the data, active = GI50 up to about 1.1 µM and inactive = higher.
Entry note: the call must match one of active, inactive

Past entries and their recorded results:
[
  {
    "compound": "c1cc(-c2ncc(-c3ccc4c(c3)CCCO4)o2)ccn1",
    "groupLabel": "inactive"
  },
  {
    "compound": "COC(=O)c1cc2c(n1S(=O)(=O)c1ccc(C)cc1)C(=O)C(=O)c1[nH]cc(C(=O)OCc3ccccc3)c1-2",
    "groupLabel": "active"
  },
  {
    "compound": "NC(=O)C(=Cc1ccc(C(O)P(=O)(O)O)cc1)C(N)=O (stereo not given)",
    "groupLabel": "inactive"
  }
]

q: Just curious, what result did CCCCc1c2c(nc3c1CCCC3O)CCCC2 (stereo not given) get here?
a: inactive

q: Just curious, what result did Nc1ccc(/N=N/c2ccc(-c3ccc(/N=N/c4c(S(=O)(=O)O)cc5cc(S(=O)(=O)O)c(/N=N/c6ccc([N+](=O)[O-])cc6)c(N)c5c4O)cc3)cc2)c2cc(S(=O)(=O)O)ccc12 get here?
a: inactive

q: Just curious, what result did COc1ccccc1C1C(Cl)C(=O)N1NC(=O)Cc1ccccc1 (stereo not given) get here?
a: inactive

q: Just curious, what result did C/C=C1\C[C@@H]2C(OC)Nc3cc(O)c(OC)cc3C(=O)N2C1 (stereo not given in full) get here?
a: active

* * *

Test system: COLO 205
Assay: NCI tumour cell line growth inhibition, 48 h
Activity calls are given as the source filed them. Rule as the data show it: active = GI50 up to about 1.1 µM and inactive = higher.
Entry note: the call must match one of active, inactive

[
  {
    "compound": "C=C1C(=O)[C@@]23CC[C@H]4[C@@](C)(CCC[C@@]4(C)C(=O)OC)[C@@H]2CC[C@]1(O)C3",
    "groupLabel": "inactive"
  },
  {
    "compound": "CC(=O)OC12COC1CC(O)C1(C)C(=O)C(O)C3=C(C)C(O)CC(O)(C(OC(=O)c4ccccc4)C21)C3(C)C (configuration not stated)",
    "groupLabel": "inactive"
  },
  {
    "compound": "O=C1/C(=C/c2ccc(O)cc2)CCc2ccc([N+](=O)[O-])cc21",
    "groupLabel": "inactive"
  },
  {
    "compound": "Cn1c(-c2cccs2)cc(-c2ccccc2)c1-c1cccs1",
    "groupLabel": "inactive"
  },
  {
    "compound": "COC(=O)/C(=N\\Nc1nnc(C)n1N)C(C#N)c1ccccc1 (configuration not stated)",
    "groupLabel": "inactive"
  }
]

q: Just curious, what result did NC12CC3C4CC5(N)CC3C(C1)C(C5)C4C2 get here?
a: inactive

q: Just curious, what result did COc1ccc(NC(=O)CC(=O)n2nc(C)c(/N=N/c3ccc(C)c(C)c3)c2C)cc1 get here?
a: inactive

q: Just curious, what result did O=C(c1ccccc1)N1CCN(C(=S)N(C(=O)c2ccccc2)c2ccccc2)C1=S get here?
a: inactive

q: Just curious, what result did COc1cc(S(=O)(=O)Nc2ccc(-c3csc(N4C(=O)C(C)SC4c4ccccc4O)n3)cc2)ccc1Cl (configuration not stated) get here?
a: inactive

q: Just curious, what result did O=C1Nc2cccc3ncn(c23)C2=C1CCCC2 get here?
a: inactive

q: Just curious, what result did CN1CCN(CCCNN)CC1 get here?
a: inactive

q: Just curious, what result did O=C(O)Cc1ccc2c(c1O)C(=O)c1c(ccc(CC(=O)O)c1O)C2=O get here?
a: inactive

q: Just curious, what result did C=C[C@@]1(O)CCCC[C@@H]1CC(Sc1ccccc1)Sc1ccccc1 get here?
a: inactive

q: Just curious, what result did CCOC(=O)[C@@]1(C)C=C2O[C@@H]3OC4(CCCCC4)O[C@@H]3C2=C2C(O)=CC=C(O)[C@]21C(=O)OC get here?
a: inactive
